These measurements were taken from PubChem BioAssay AID1508591.

# key: entry, value: half-life
- setup_conditions: rat; liver microsomes; pH 7.4; 15.0 min; 1.0 µM

structure_string: COc1ccc(C2=Nn3c(nnc3-c3ccncc3)SC2)cc1
result_operator: =
half-life [min]: 1.9
--
structure_string: C#C[C@]1(OC(C)=O)CC[C@H]2[C@@H]3CCC4=C/C(=N/O)CC[C@@H]4[C@H]3CC[C@@]21CC
result_operator: =
half-life [min]: 3.98
--
structure_string: CCN1CCN(CCCOc2ccc(-c3ccccc3)cc2)CC1
result_operator: =
half-life [min]: 7.9
--
structure_string: C[C@H]1CN(C(=O)c2nn(C)c3ccccc23)C[C@@H]1c1nc(-c2cccnc2)no1
result_operator: =
half-life [min]: 4.4
--
structure_string: Clc1ccccc1-c1nccc(-n2ccnc2)n1
result_operator: >
half-life [min]: 30

* * *

- setup_conditions: rat; liver microsomes; pH 7.4; 15.0 min; 1.0 µM

compound: COc1cc(Cl)c(C)cc1NC(=O)CSc1ncc(S(=O)(=O)c2ccc(C(C)(C)C)cc2)c(=O)[nH]1
half-life: 6.38 min
//
compound: Cc1ccc(-n2ncc3c(NCCCn4ccnc4)ncnc32)cc1Cl
half-life: 22.7 min
//
compound: Cc1ccc(S(=O)(=O)Nc2ccc(C(=O)Nc3nc(-c4ccccc4)cs3)c(Cl)c2)cc1
half-life: 23 min
//
compound: Fc1cccc(F)c1Nc1nc(-c2ccncc2)nc2ccccc12
half-life: 29 min
//
compound: O=C1CCCC2=C1C(c1ccccc1I)N=C(Nc1nc3ccccc3o1)N2 (stereo not given)
half-life: 8.4 min
//
compound: CN1CCN(C(=O)Cc2c[nH]c3ncc(-c4ccccc4Oc4ccccc4)cc23)CC1
half-life: 1.72 min
//
compound: Oc1c(C(Nc2nccs2)c2ccc(C(F)(F)F)cc2)ccc2cccnc12 (stereo not given)
half-life: 3.54 min
//
compound: CCc1ccc(-n2nnc(-c3nsc(NC(=O)c4ccccc4Cl)n3)c2C)cc1
half-life: 10.9 min
//
compound: CN(Cc1cccs1)c1nc(-c2ccccc2C(F)(F)F)nc2ccccc12
half-life: 1.98 min
//
compound: Cc1ccc(NS(=O)(=O)c2ccc3c(c2)NC(=O)CO3)cc1C
half-life: 3.13 min

* * *

- setup_conditions: rat; liver microsomes; pH 7.4; 15.0 min; 1.0 µM
measured_metric: half-life

structure_string: COC(=O)c1ccccc1C(=O)Nc1nc(-c2ccccc2)cs1
result: 3 min
--
structure_string: COc1cc(Cl)c(C)cc1Nc1c2c(nc3ccccc13)CCC2
result: 1.75 min
--
structure_string: CSc1nnc2c3ccccc3n(CCc3ccccc3)c2n1
result: 1.69 min
--
structure_string: COCCn1ccc2c(C3=CCOCC3)nc(-c3cccc(NC(C)=O)c3)cc21
result: > 30 min
--
structure_string: CN1Cc2c(ccc3c2OCO3)[C@@H]2[C@H]1c1cc3c(cc1C[C@@H]2O)OCO3
result: 2.12 min
--
structure_string: Cc1cc(C)nc(NS(=O)(=O)c2ccc(NC(=S)NC(=O)COc3ccc(Br)cc3Cl)cc2)n1
result: > 30 min
--
structure_string: Cc1cnc(-c2ccccc2C2COC2)nc1NCc1ccc(-c2cccnc2)cc1
result: 12 min
--
structure_string: CCc1ccc(CNc2ccc3c(c2)ncn3C(C)(C)C)cc1
result: 9.8 min
--
structure_string: Oc1ccc(CNc2ccccc2C(F)(F)F)c2cccnc12
result: 4.99 min
--
structure_string: C[S+](=O)([O-])c1ccc(-c2nc(C(=O)N3CCOCC3)n3ccccc23)cc1
result: > 30 min

* * *

- setup_conditions: rat; liver microsomes; pH 7.4; 15.0 min; 1.0 µM
Threshold 6 min: half-life strictly smaller gives condition met, otherwise condition not met.

compound: COc1cccc(CNc2ccc(S(=O)(=O)Nc3nc(C)cs3)cc2)c1O
label_value: condition not met
--
compound: O=C(Nc1nc2cc(C(F)(F)F)cc(NC3CC3)n2n1)c1cccnc1
label_value: condition not met
--
compound: CCn1cc(CNC(=O)c2cc(-c3ccc(C)cc3)nc3ccc(Br)cc23)c(C)n1
label_value: condition not met
--
compound: CN(C)C(=O)c1nc(-c2ccc(Cl)nc2)c2ccccn12
label_value: condition not met
--
compound: NC(=O)N1CCCC(C(=O)N2CCCN(c3ccc(F)cc3)CC2)C1 (stereo not given)
label_value: condition not met
--
compound: CCc1nnc(NC(=O)c2nc(S(=O)(=O)Cc3ccc(C)cc3)ncc2Cl)s1
label_value: condition not met
--
compound: CCOC(=O)N1CCN(Cc2nc3c(c(=O)n(C)c(=O)n3C)n2Cc2cccc(C)c2)CC1
label_value: condition met
--
compound: CC(=O)Nc1cc(-c2nc(Nc3ccc(F)c(F)c3)c3ccccc3n2)ccn1
label_value: condition not met
--
compound: Cc1ccccc1NC(=O)Nc1cccs1
label_value: condition not met
--
compound: COC(=O)[C@@H]1C[C@H](OC(C)=O)C(=O)[C@H]2[C@@]1(C)CCC1C(=O)O[C@H](c3ccoc3)C[C@@]12C (stereo not given in full)
label_value: condition not met
--
compound: COc1cc(NC(=O)c2nc3ccccc3n(C)c2=O)cc(OC)c1OC
label_value: condition not met
--
compound: COc1cc(C(=S)N2CCN(CCO)CC2)ccc1OCc1ccc(C)cc1
label_value: condition met
--
compound: COCCNCc1ccc(-c2cc3nccc(Oc4ccc(NC(=O)C5(C(=O)Nc6ccc(F)cc6)CC5)cc4F)c3s2)nc1
label_value: condition not met
--
compound: CC(C)(O)CNc1nc(Nc2ccnc(C(F)(F)F)c2)nc(-c2cccc(C(F)(F)F)n2)n1
label_value: condition not met
--
compound: COc1ccc2[nH]c(=O)c(-c3noc(-c4ccc(F)cc4)n3)cc2c1
label_value: condition not met
--
compound: Cc1ccc(NC(=O)C(Cc2ccccc2)NS(=O)(=O)c2cccs2)cc1Cl (stereo not given)
label_value: condition met
--
compound: COc1ccc(C(=O)Nc2nc(-c3ccccc3)cs2)c(NS(=O)(=O)c2ccc(C)cc2)c1
label_value: condition not met
--
compound: CC1=NN(c2ccc(C(=O)O)cc2)C(=O)/C1=C/c1ccc(-c2cc(C)c(C)cc2[N+](=O)[O-])o1
label_value: condition not met

* * *

- setup_conditions: rat; liver microsomes; pH 7.4; 15.0 min; 1.0 µM
# key: entry, value: half-life

structure_string: O=C(c1cnc(N2CCCCC2)c2ccccc12)N1CCN(c2ccc(Cl)cc2)CC1
display_unit: min
result_operator: =
half-life: 2.8
//
structure_string: Cc1ccc(CC(=O)Nc2nc(-c3ccc4c(c3)CCN4C(=O)c3ccccc3C)c(C)s2)cc1C
display_unit: min
result_operator: =
half-life: 19
//
structure_string: Clc1ccc(-c2noc3ncnc(N4CCCCC4)c23)cc1
display_unit: min
result_operator: =
half-life: 5.8
//
structure_string: CC(C)c1ccc(OCc2nc3c(n2Cc2ccccc2)C(=O)N(CC2CC2)CCN3)cc1
display_unit: min
result_operator: =
half-life: 1.82
//
structure_string: CCCCCCCCc1ccc(CCC(N)(CO)CO)cc1
display_unit: min
result_operator: >
half-life: 30
//
structure_string: Fc1ccc(Nc2cc(-c3ccccc3)nc(-c3ccncc3)n2)cc1F
display_unit: min
result_operator: >
half-life: 30
//
structure_string: COc1ccc(-c2csc(NC(=O)c3ccccc3NS(=O)(=O)c3ccc(C)cc3)n2)cc1
display_unit: min
result_operator: =
half-life: 2.34
//
structure_string: Fc1ccccc1Nc1nc(-c2ccncc2)nc2ccccc12
display_unit: min
result_operator: =
half-life: 7.9
//
structure_string: C#CCNC(=O)c1nc(-c2ccc([S+](C)(=O)[O-])cc2)c2cnccn12
display_unit: min
result_operator: >
half-life: 30
//
structure_string: NC(=O)C1CCN(c2nc(-c3cccc(N)c3)cs2)CC1
display_unit: min
result_operator: >
half-life: 30

* * *

- setup_conditions: rat; liver microsomes; pH 7.4; 15.0 min; 1.0 µM
# key: entry, value: half-life
measured_metric: half-life (min)

compound: Cc1sc(NC(=O)Cc2ccc3c(c2)OCO3)nc1-c1ccc2c(c1)CCN2C(=O)C1CCCCC1
result_operator: =
recorded_number: 8.6
--
compound: O=C(Nc1nc(-c2ccccc2)cs1)c1ccncc1NS(=O)(=O)c1cccnc1
result_operator: =
recorded_number: 20
--
compound: Cc1ccc(CCNC(=O)C2CCCN(C(=O)c3cc4sccc4n3C)C2)cc1 (stereo not given)
result_operator: =
recorded_number: 1.7
--
compound: Cc1ccc(-c2cc(C(=O)Nc3ccc(-c4nn[nH]n4)cc3)c3ccccc3n2)cc1C
result_operator: >
recorded_number: 30
--
compound: COc1cc([C@@H]2c3cc4c(cc3[C@H](O)[C@H]3COC(=O)[C@H]23)OCO4)cc(OC)c1OC
result_operator: >
recorded_number: 30
--
compound: CC(C)(N)CNC(=O)CC1CCC2(CC1)OOC1(O2)C2CC3CC(C2)CC1C3 (stereo not given)
result_operator: >
recorded_number: 30
--
compound: COc1ccc(CNC(=O)c2sc3nc(C)cc(C)c3c2N)cc1
result_operator: =
recorded_number: 8.47
--
compound: Cc1ccc(S(=O)(=O)Nc2ccccc2C(=O)Nc2ccc(-c3ccccc3)nn2)cc1
result_operator: =
recorded_number: 4
--
compound: CN(C)CCCn1cc(C2=C(c3c[nH]c4ccccc34)C(=O)NC2=O)c2ccccc21
result_operator: =
recorded_number: 10.5
--
compound: Cc1c(C(=O)OCCOc2ccccc2)[nH]c2c1C(=O)CC(c1ccccc1)C2 (stereo not given)
result_operator: =
recorded_number: 5.25
--
compound: CCOc1ccc(CCNC(=O)c2cc3cnccc3n2Cc2cccc(C)c2)cc1OCC
result_operator: =
recorded_number: 6.9
--
compound: c1ccc(Nc2cc3c(cn2)CN(Cc2ccc4[nH]ccc4c2)CCN3)cc1
result_operator: =
recorded_number: 2.09
--
compound: O=C1CCCCc2cc(O)c(O)cc21
result_operator: >
recorded_number: 30
--
compound: COc1ccc2c(c1)CCc1c-2n[nH]c1C(=O)N1CCc2c(nc3cc(-c4ccccc4)[nH]n3c2=O)C1
result_operator: =
recorded_number: 27.3
--
compound: Cc1noc(C)c1-c1ccc2ncnc(N3CCC(C(=O)O)CC3)c2c1
result_operator: >
recorded_number: 30
--
compound: CC(=O)c1ccc(N2CCN(S(=O)(=O)c3ccc4[nH]c(=O)[nH]c4c3)CC2)cc1
result_operator: >
recorded_number: 30
--
compound: CCOc1ccc(CCNC(=O)c2cc3ccccc3n2Cc2ccc(Cl)c(F)c2)cc1OCC
result_operator: =
recorded_number: 1.7
--
compound: CCCCCn1c(=O)[nH]c2cc(C(=O)NCCCN3CCCCC3)ccc2c1=O
result_operator: >
recorded_number: 30
--
compound: Cc1ccc(NC(=O)c2c(N3CCCC3=O)c3cc(C)ccc3n2C)c(C)c1
result_operator: =
recorded_number: 1.31
--
compound: CC(=O)c1ccc(N2CCN(S(=O)(=O)c3ccc4c(c3)n(C)c(=O)n4C)CC2)cc1
result_operator: >
recorded_number: 30
